Quick reference for inhibition at 0.1 µM among some compounds
target-entity: human vasopressin V2 receptor subtype (Homo sapiens)
Construct: host or cells: CHO cells (pZeoSV vector)
Sequence (P30518 whole entry): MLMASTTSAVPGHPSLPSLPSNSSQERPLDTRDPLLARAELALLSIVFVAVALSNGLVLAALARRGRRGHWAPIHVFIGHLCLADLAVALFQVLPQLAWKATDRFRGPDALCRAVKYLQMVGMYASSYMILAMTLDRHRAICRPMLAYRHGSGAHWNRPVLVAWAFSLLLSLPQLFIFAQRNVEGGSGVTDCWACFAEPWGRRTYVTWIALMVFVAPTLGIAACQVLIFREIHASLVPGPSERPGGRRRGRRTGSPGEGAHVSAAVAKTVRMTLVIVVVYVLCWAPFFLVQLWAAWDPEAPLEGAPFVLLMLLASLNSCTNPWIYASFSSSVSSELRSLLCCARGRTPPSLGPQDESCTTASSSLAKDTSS
assay-info: Vasopressin binding in Chinese Hamster Ovary cell membranes expressing human vasopressin V2 subtype receptors
conditions: 100 nM, CHO cell membranes, [3H]arginine vasopressin, values without parentheses
Write the figure, then the unit, nothing else.

item_smiles=COc1ccccc1-c1ccc(C(=O)N2Cc3ccc(C(=O)N[C@H]4CN5CCC4CC5)n3Cc3ccccc32)cc1C recorded_value=29%

Query: Consider the compound COc1ccccc1-c1ccc(C(=O)N2Cc3ccc(C(=O)N(C)CCN(C)C)n3Cc3ccccc32)cc1OC and give its measured inhibition at 0.1 µM.
Result: 26%

Query: Consider the compound C=CCN1CCN(C(=O)c2ccc3n2Cc2ccccc2N(C(=O)c2ccc(-c4cccc(OC)c4)c(C)c2)C3)CC1 and give its measured inhibition at 0.1 µM.
Result: 13%

Query: Consider the compound Cc1cc(C(=O)N2Cc3ccc(C(=O)NCCN4CCCCC4)n3Cc3ccccc32)ccc1-c1ccccc1C(F)(F)F and give its measured inhibition at 0.1 µM.
Result: 4%
